Assignment: determine reported Kd for the given binders.
Target: T1, human CD3E&G complex (Sino Biological Inc., CT041-H0305H) (human, UniProt P07766 23-126; P09693 23-116)
T1 construct: bought heterodimer; also called human CD3E&G antigen
T1 sequence (P07766 23-126, chain 1 of 2): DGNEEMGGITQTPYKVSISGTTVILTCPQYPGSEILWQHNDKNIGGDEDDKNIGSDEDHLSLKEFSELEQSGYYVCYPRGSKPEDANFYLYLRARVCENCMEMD
T1 sequence (P09693 23-116, chain 2 of 2): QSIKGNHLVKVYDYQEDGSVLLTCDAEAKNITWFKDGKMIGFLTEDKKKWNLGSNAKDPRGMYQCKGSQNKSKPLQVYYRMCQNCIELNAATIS
Test: BLI, antibody on sensor

Exam item: If you can, please state the reported Kd value of hzsp34.84 (antibody, human IgG1, lambda, L234A L235A, V domains shown, CDR mutant of hzsp34.24; IgG1 L234A L235A, lambda) VH: EVQLVESGGGLVQPGGSLKLSCAASGFTFNTYAMNWVRQASGKGLEWVGRIRSKYGNYATYYADSVKDRFTISRDDSKSTLYLQMNSLKTEDTAVYYCARHGNFGQSYVSWFAYWGQGTTVTVSS VL: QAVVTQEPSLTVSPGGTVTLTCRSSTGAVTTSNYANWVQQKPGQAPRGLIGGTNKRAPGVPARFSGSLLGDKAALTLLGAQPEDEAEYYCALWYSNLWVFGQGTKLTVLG .
Marked response: 4.89 nM

Exam item: Would you mind doing hzsp34.105 (antibody, human IgG1, lambda, L234A L235A, V domains shown, CDR mutant of hzsp34.24; IgG1 L234A L235A, lambda) VH: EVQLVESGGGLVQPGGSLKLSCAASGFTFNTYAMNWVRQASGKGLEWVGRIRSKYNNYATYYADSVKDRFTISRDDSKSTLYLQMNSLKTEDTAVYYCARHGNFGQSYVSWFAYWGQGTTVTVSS VL: QAVVTQEPSLTVSPGGTVTLTCRSSTGAVTTRNYANWVQQKPGQAPRGLIGGTNKRAPGVPARFSGSLLGDKAALTLLGAQPEDEAEYYCALWYSNLWVFGQGTKLTVLG as well?
Marked response: 10.6 nM
